System: Saccharomyces cerevisiae
Assay Explanation: protein stability index of tFT-peptide fusion (C-terminal peptide) (PSI (0-1 scale)); higher = more stable (slower turnover)
Condition Label: genetic background: wild type; temperature: 30 C
Class 1 (yes): protein stability index at least 0.7. Class 0 (no): protein stability index below 0.7.

Would you please look over these solved cases?
PSLSPVEVPLSR : 1 (yes)
AGGGHCVGMGVG : 0 (no)
VLLRVSEQVSRV : 0 (no)
FRVEWKPLYHGI : 0 (no)
EGITFGNDECWC : 1 (yes)

Ask: Reported protein stability index at or above 0.7? TFLMEMVPRLFI
Result: 0 (no)

Ask: Reported protein stability index at or above 0.7? VFGCAGVGGDCG
Result: 0 (no)

Ask: Reported protein stability index at or above 0.7? LIVPGGLSVFGG
Result: 0 (no)

Ask: Reported protein stability index at or above 0.7? ETCIWDGRPIAS
Result: 1 (yes)

====

Test system: Saccharomyces cerevisiae
Assay Explanation: protein stability index of tFT-peptide fusion (C-terminal peptide) (PSI (0-1 scale)); higher = more stable (slower turnover)
Condition Label: genetic background: wild type; temperature: 30 C
Measure: protein stability index
# output: bare number, no unit

PPPPPSPAPSLR : 0.723
KKNYEKPIRKYQ : 0.642
PPYDSSYGILLR : 0.767
YLGTTHTGTSHR : 0.701
LAPPPPARPALP : 0.699
ERYLCVGIAHGP : 0.706
GDECHSCSSPIA : 0.786
LVYPSPPLQPPP : 0.649
PSPPPPRPASPS : 0.439
LSLPPHSPPLHR : 0.702

Ask: State the recorded protein stability index for this entry: VVWLFGVSWCWL
Result: 0.419

Ask: State the recorded protein stability index for this entry: PISTHYGSAVFM
Result: 0.692

Ask: State the recorded protein stability index for this entry: HVRVGRGLAVMC
Result: 0.528

Ask: State the recorded protein stability index for this entry: VPAYLVAARQYY
Result: 0.655

Ask: State the recorded protein stability index for this entry: NYNNGHNLKKER
Result: 0.634

Ask: State the recorded protein stability index for this entry: LLSPAPRSPRRP
Result: 0.725

Ask: State the recorded protein stability index for this entry: PSPAPRPFAPLP
Result: 0.69

Ask: State the recorded protein stability index for this entry: LPSPSYPAPVPN
Result: 0.65

Ask: State the recorded protein stability index for this entry: HQYLGMCLDRPV
Result: 0.646

Ask: State the recorded protein stability index for this entry: RLGRATLLLLFF
Result: 0.572

Ask: State the recorded protein stability index for this entry: LLTAFQACPASN
Result: 0.713

Ask: State the recorded protein stability index for this entry: EKNKRMEVKAKR
Result: 0.67

Ask: State the recorded protein stability index for this entry: RTHPPADAWYLS
Result: 0.698

Ask: State the recorded protein stability index for this entry: GIVFRGVVTWLL
Result: 0.6

Ask: State the recorded protein stability index for this entry: AAREVSPGNVCH
Result: 0.731

Ask: State the recorded protein stability index for this entry: FGYAGGSRVLGS
Result: 0.68

====

Test system: Saccharomyces cerevisiae
Assay Explanation: protein stability index of tFT-peptide fusion (C-terminal peptide) (PSI (0-1 scale)); higher = more stable (slower turnover)
Condition Label: genetic background: wild type; temperature: 30 C
The entries below come with measured protein stability index values attached.

Known results for sequences:
FLCSLAPHRPLL : 0.704
MNVASCRGREYV : 0.686
KNIIEKKIKKRK : 0.711
PEQKKRKVKIKK : 0.686
IDASPRFRDFLF : 0.71
GGLLGAGGGCGV : 0.681

Please turn your attention to the following entry.
Ask: State the recorded protein stability index for this entry: PATTVAKGSHQF
Result: 0.717

====

The entries below come with measured protein stability index values attached.
Tested on: Saccharomyces cerevisiae
Assay Explanation: protein stability index of tFT-peptide fusion (C-terminal peptide) (PSI (0-1 scale)); higher = more stable (slower turnover)
Condition Label: genetic background: wild type; temperature: 30 C
# output: bare number, no unit

Known results for sequences:
GLVGGLCIGRLV : 0.672
IGCEVLQCRCVD : 0.672
LYITLLEFKEGR : 0.643

Ask: State the recorded protein stability index for this entry: KANIKGIKTRIT
Result: 0.642

Ask: State the recorded protein stability index for this entry: GDGLGFNRPNGR
Result: 0.659

Ask: State the recorded protein stability index for this entry: AVGVRSSGRVSI
Result: 0.725

Ask: State the recorded protein stability index for this entry: RGGGGGGDCVGA
Result: 0.727

Ask: State the recorded protein stability index for this entry: VVSYVHTQPPLS
Result: 0.684

Ask: State the recorded protein stability index for this entry: PHAERASPDGLS
Result: 0.664

Ask: State the recorded protein stability index for this entry: MEAERRKEGENS
Result: 0.673

Ask: State the recorded protein stability index for this entry: HLCVDHLGCHSF
Result: 0.703

Ask: State the recorded protein stability index for this entry: TVRWRRGTGGAR
Result: 0.704

Ask: State the recorded protein stability index for this entry: SLTEAVHWDRIS
Result: 0.67

Ask: State the recorded protein stability index for this entry: VGVLWALIVGVR
Result: 0.251

Ask: State the recorded protein stability index for this entry: PAKTEPGPLNHR
Result: 0.68

Ask: State the recorded protein stability index for this entry: GESWEKVMNKRM
Result: 0.704

Ask: State the recorded protein stability index for this entry: YIDDGVVENVRV
Result: 0.681

Ask: State the recorded protein stability index for this entry: RACDQPSGVCNV
Result: 0.669

Ask: State the recorded protein stability index for this entry: KVSIINAWKEKI
Result: 0.679

Ask: State the recorded protein stability index for this entry: GGRHARRGRRRR
Result: 0.75

====

The entries below come with measured protein stability index values attached.
System: Saccharomyces cerevisiae
Assay Explanation: protein stability index of tFT-peptide fusion (C-terminal peptide) (PSI (0-1 scale)); higher = more stable (slower turnover)
Condition Label: genetic background: wild type; temperature: 30 C
# output: bare number, no unit

Ask: Short answer please: protein stability index, Saccharomyces cerevisiae, entry RRIQNHPDSTSA
Result: 0.696

Ask: Short answer please: protein stability index, Saccharomyces cerevisiae, entry LLGWRFFYLGVG
Result: 0.688

Ask: Short answer please: protein stability index, Saccharomyces cerevisiae, entry SSTVGKEGTSRI
Result: 0.69

Ask: Short answer please: protein stability index, Saccharomyces cerevisiae, entry GGDWVGHVLDLW
Result: 0.708

Ask: Short answer please: protein stability index, Saccharomyces cerevisiae, entry HPFARGPLSRHP
Result: 0.7

Ask: Short answer please: protein stability index, Saccharomyces cerevisiae, entry PPSALPHPPLPP
Result: 0.718

====

The entries below come with measured protein stability index values attached.
Test system: Saccharomyces cerevisiae
Assay Explanation: protein stability index of tFT-peptide fusion (C-terminal peptide) (PSI (0-1 scale)); higher = more stable (slower turnover)
Condition Label: genetic background: das1 deletion; temperature: 30 C
# output: bare number, no unit

Known results for sequences:
HALCLSVYVSAH : 0.249
FSRFPFVKLSLV : 0.62
WLSISNLVIACR : 0.135
CLVSLPILLFFR : 0.0501
FYIWFFRLIYFF : 0.402

Ask: State the recorded protein stability index for this entry: LDFPPLRLILRL
Result: 0.584

Ask: State the recorded protein stability index for this entry: GWIFFYFTWFVG
Result: 0.198

Ask: State the recorded protein stability index for this entry: EWLITLRKCGVA
Result: 0.478

Ask: State the recorded protein stability index for this entry: CSFELSVCLMLR
Result: 0.133

Ask: State the recorded protein stability index for this entry: WEPILLELELCV
Result: 0.395

Ask: State the recorded protein stability index for this entry: VGGREVSRAGGG
Result: 0.49

Ask: State the recorded protein stability index for this entry: FALFLFFGPLIV
Result: 0.301

Ask: State the recorded protein stability index for this entry: SLPIFSGVASVR
Result: 0.64

====

System: Saccharomyces cerevisiae
Assay Explanation: protein stability index of tFT-peptide fusion in wild type (PSI (0-1 scale)); higher = more stable (slower turnover)
Condition Label: genetic background: wild type
Measure: protein stability index
# output: bare number, no unit

Known results for sequences:
CTSCRYKFRTNN : 0.395
PDKGNHLIKLLN : 0.23
RLIQPLPVQTLN : 0.163
RLIQPLNVQFLN : 0.0919
RLMQPLPVQFLN : 0.1
VDKRNHLIKLLN : 0.105
VRGAVGGWRMVG : 0.155
CTSCGYKFRTNND : 0.692
CSSCGYKFRTNN : 0.216
LHILRQKMNHQN : 0.105

Ask: State the recorded protein stability index for this entry: CTSCMYKFRTNN
Result: 0.207

Ask: State the recorded protein stability index for this entry: LVILRQKMNHQN
Result: 0.135

Ask: State the recorded protein stability index for this entry: ARARVGLWRGAS
Result: 0.531

Ask: State the recorded protein stability index for this entry: PSLKASFWRVVG
Result: 0.147
